system: P. aeruginosa PA14; experiment: microbe, parasite or virus in culture; conditions: MH broth pH 7.4, 16–20 h, 37 °C
Reported values of MIC PA14 for individual entries
Output spec: scalar in µg/mL, unitless text.

CC(C)C[C@H](NC(=O)[C@H](CC(C)C)NC(=O)[C@H](CC(C)C)NC(=O)[C@H](CCCCN)NC(=O)[C@H](CC(C)C)NC(=O)[C@H](CC(C)C)NC(=O)[C@H](CCCCN)NC(=O)[C@H](CC(C)C)NC(=O)[C@H](CC(C)C)NC(=O)[C@@H](CCCCN)NC(=O)[C@H](N)CCCCN)C(N)=O
2

For the compound CC(C)C[C@H](NC(=O)[C@H](CC(C)C)NC(=O)[C@H](CC(C)C)NC(=O)[C@@H](CCCCN)NC(=O)[C@H](CC(C)C)NC(=O)[C@H](CC(C)C)NC(=O)[C@@H](CCCCN)NC(=O)[C@H](CC(C)C)NC(=O)[C@H](CC(C)C)NC(=O)[C@@H](CCCCN)NC(=O)[C@H](N)CCCCN)C(N)=O , the measured MIC PA14 on P. aeruginosa PA14 was 2

For the compound CC(C)C[C@H](NC(=O)[C@H](CC(C)C)NC(=O)[C@H](CC(C)C)NC(=O)[C@H](CCCCN)NC(=O)[C@H](CC(C)C)NC(=O)[C@H](CC(C)C)NC(=O)[C@@H](CCCCN)NC(=O)[C@H](CC(C)C)NC(=O)[C@H](CC(C)C)NC(=O)[C@@H](CCCCN)NC(=O)[C@@H](N)CCCCN)C(N)=O , the measured MIC PA14 on P. aeruginosa PA14 was 4

* * *

tested on: Stenotrophomonas maltophilia; test: microbe, parasite or virus in culture; type: cell-based; details: pH 7.4
reported-endpoint: MIC Stenotrophomonas maltophilia (µg/mL)
Output spec: scalar in µg/mL, unitless text.

For the compound CC(C)C[C@H](NC(=O)[C@H](CC(C)C)NC(=O)[C@H](CC(C)C)NC(=O)[C@H](CCCCN)NC(=O)[C@H](CC(C)C)NC(=O)[C@H](CC(C)C)NC(=O)[C@H](CCCCN)NC(=O)[C@H](CC(C)C)NC(=O)[C@H](CC(C)C)NC(=O)[C@@H](CCCCN)NC(=O)[C@@H](N)CCCCN)C(N)=O [HP1] , the measured MIC Stenotrophomonas maltophilia on Stenotrophomonas maltophilia was 4

For the compound CC(C)C[C@H](NC(=O)[C@H](CC(C)C)NC(=O)[C@H](CC(C)C)NC(=O)[C@H](CCCCN)NC(=O)[C@H](CC(C)C)NC(=O)[C@H](CC(C)C)NC(=O)[C@@H](CCCCN)NC(=O)[C@H](CC(C)C)NC(=O)[C@H](CC(C)C)NC(=O)[C@@H](CCCCN)NC(=O)[C@H](N)CCCCN)C(N)=O [HP10, kkLLkLLKLLL] , the measured MIC Stenotrophomonas maltophilia on Stenotrophomonas maltophilia was 2

For the compound CC(C)C[C@H](NC(=O)[C@H](CC(C)C)NC(=O)[C@H](CC(C)C)NC(=O)[C@H](CCCCN)NC(=O)[C@H](CC(C)C)NC(=O)[C@H](CC(C)C)NC(=O)[C@H](CCCCN)NC(=O)[C@H](CC(C)C)NC(=O)[C@H](CC(C)C)NC(=O)[C@H](CCCCN)NC(=O)[C@@H](N)CCCCN)C(N)=O [ln65] , the measured MIC Stenotrophomonas maltophilia on Stenotrophomonas maltophilia was 2

For the compound CC(C)C[C@H](NC(=O)[C@H](CC(C)C)NC(=O)[C@H](CC(C)C)NC(=O)[C@H](CCCCN)NC(=O)[C@H](CC(C)C)NC(=O)[C@H](CC(C)C)NC(=O)[C@@H](CCCCN)NC(=O)[C@H](CC(C)C)NC(=O)[C@H](CC(C)C)NC(=O)[C@@H](CCCCN)NC(=O)[C@@H](N)CCCCN)C(N)=O [HP3, KkLLkLLKLLL] , the measured MIC Stenotrophomonas maltophilia on Stenotrophomonas maltophilia was 4

* * *

system: PA14 2P4 (pmrB); experiment: microbe, parasite or virus in culture; conditions: supplementary CSV
Reported values of MIC P. aeruginosaPA14 2P4 for individual entries

The following molecules have reported results that may help.
CC(C)C[C@H](NC(=O)[C@H](CC(C)C)NC(=O)[C@H](CC(C)C)NC(=O)[C@H](CCCCN)NC(=O)[C@H](CC(C)C)NC(=O)[C@H](CC(C)C)NC(=O)[C@H](CCCCN)NC(=O)[C@H](CC(C)C)NC(=O)[C@H](CC(C)C)NC(=O)[C@@H](CCCCN)NC(=O)[C@@H](N)CCCCN)C(N)=O
64 µg/mL
CC(C)C[C@H](NC(=O)[C@H](CC(C)C)NC(=O)[C@H](CC(C)C)NC(=O)[C@H](CCCCN)NC(=O)[C@H](CC(C)C)NC(=O)[C@H](CC(C)C)NC(=O)[C@@H](CCCCN)NC(=O)[C@H](CC(C)C)NC(=O)[C@H](CC(C)C)NC(=O)[C@@H](CCCCN)NC(=O)[C@@H](N)CCCCN)C(N)=O
32 µg/mL
CC(C)C[C@H](NC(=O)[C@H](CC(C)C)NC(=O)[C@H](CC(C)C)NC(=O)[C@H](CCCCN)NC(=O)[C@H](CC(C)C)NC(=O)[C@H](CC(C)C)NC(=O)[C@H](CCCCN)NC(=O)[C@@H](CC(C)C)NC(=O)[C@H](CC(C)C)NC(=O)[C@@H](CCCCN)NC(=O)[C@@H](N)CCCCN)C(N)=O
64 µg/mL
CC(C)C[C@H](NC(=O)[C@H](CC(C)C)NC(=O)[C@H](CC(C)C)NC(=O)[C@H](CCCCN)NC(=O)[C@H](CC(C)C)NC(=O)[C@H](CC(C)C)NC(=O)[C@@H](CCCCN)NC(=O)[C@H](CC(C)C)NC(=O)[C@H](CC(C)C)NC(=O)[C@@H](CCCCN)NC(=O)[C@H](N)CCCCN)C(N)=O
32 µg/mL
CC(C)C[C@H](NC(=O)[C@H](CC(C)C)NC(=O)[C@H](CC(C)C)NC(=O)[C@H](CCCCN)NC(=O)[C@@H](CC(C)C)NC(=O)[C@H](CC(C)C)NC(=O)[C@H](CCCCN)NC(=O)[C@@H](CC(C)C)NC(=O)[C@@H](CC(C)C)NC(=O)[C@@H](CCCCN)NC(=O)[C@@H](N)CCCCN)C(N)=O
16 µg/mL

Record CC(C)C[C@H](NC(=O)[C@H](CCCCN)NC(=O)[C@H](N)CCCCN)C(=O)N[C@@H](CC(C)C)C(=O)N[C@@H](CCCCN)C(=O)N[C@@H](CC(C)C)C(=O)N[C@@H](CC(C)C)C(=O)N[C@@H](CCCCN)C(=O)N[C@@H](CC(C)C)C(=O)N[C@@H](CC(C)C)C(=O)N[C@H](CC(C)C)C(N)=O . Reported MIC P. aeruginosaPA14 2P4: 32 µg/mL

Record CC(C)C[C@H](NC(=O)[C@H](CC(C)C)NC(=O)[C@H](CC(C)C)NC(=O)[C@H](CCCCN)NC(=O)[C@H](CC(C)C)NC(=O)[C@H](CC(C)C)NC(=O)[C@H](CCCCN)NC(=O)[C@H](CC(C)C)NC(=O)[C@H](CC(C)C)NC(=O)[C@@H](CCCCN)NC(=O)[C@H](N)CCCCN)C(N)=O . Reported MIC P. aeruginosaPA14 2P4: 64 µg/mL

Record CC(C)C[C@H](NC(=O)[C@H](CC(C)C)NC(=O)[C@H](CC(C)C)NC(=O)[C@@H](CCCCN)NC(=O)[C@H](CC(C)C)NC(=O)[C@H](CC(C)C)NC(=O)[C@@H](CCCCN)NC(=O)[C@H](CC(C)C)NC(=O)[C@H](CC(C)C)NC(=O)[C@@H](CCCCN)NC(=O)[C@H](N)CCCCN)C(N)=O . Reported MIC P. aeruginosaPA14 2P4: 32 µg/mL

Record CC(C)C[C@H](NC(=O)[C@H](CC(C)C)NC(=O)[C@H](CC(C)C)NC(=O)[C@H](CCCCN)NC(=O)[C@H](CC(C)C)NC(=O)[C@H](CC(C)C)NC(=O)[C@H](CCCCN)NC(=O)[C@H](CC(C)C)NC(=O)[C@H](CC(C)C)NC(=O)[C@H](CCCCN)NC(=O)[C@@H](N)CCCCN)C(N)=O . Reported MIC P. aeruginosaPA14 2P4: 32 µg/mL

Record CC(C)C[C@@H](NC(=O)[C@@H](CC(C)C)NC(=O)[C@@H](CC(C)C)NC(=O)[C@H](CCCCN)NC(=O)[C@@H](CC(C)C)NC(=O)[C@@H](CC(C)C)NC(=O)[C@H](CCCCN)NC(=O)[C@@H](CC(C)C)NC(=O)[C@@H](CC(C)C)NC(=O)[C@H](CCCCN)NC(=O)[C@@H](N)CCCCN)C(N)=O . Reported MIC P. aeruginosaPA14 2P4: 16 µg/mL
